Kindly supply the reported %Inh values for the records listed here.
system: MEK2; construct: gene MAP2K2; conditions: concentration: 1 μM,replicates: in singlicate; n = 1;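 also: KINOMEscan kinase panel screen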
Answers are plain numbers, in %.

Cl.Cl.NC[C@H](CC1CCCCC1)NC(=O)c1cc(Br)c(-c2ccnc3[nH]ccc23)s1 [GSK1581427] ... 0
Cl.Cl.NC[C@H](Cc1ccc(C(F)(F)F)cc1)NC(=O)c1cc(Br)c(-c2ccnc3[nH]ccc23)s1 [GSK1487252] ... 0
CC(C)Nc1cc(-c2ccc3c(N)n[nH]c3c2)nc(N)n1 [GSK2221681] ... 0
CCn1c(-c2nonc2N)nc2c(C#CC(C)(C)O)nc(OCCN)cc21.Cl.Cl [GSK902056] ... 0
Cc1cc2cn[nH]c2cc1-c1cccc2c(N)c(C(N)=O)nnc12 ... 45

Continue with the next molecule.
Note down %Inh recorded for COc1ccc(C[C@@H](CN)NC(=O)c2cc(Br)c(-c3ccnc4[nH]ccc34)s2)cc1.Cl.Cl [GSK1389063]
22
